- Assay procedure: recombinant UMI read abundance after kanamycin selection (control-corrected) (log10(CPM+1)); higher = more efficient recombination; extreme values may be limits of the assay; sequences stand for … in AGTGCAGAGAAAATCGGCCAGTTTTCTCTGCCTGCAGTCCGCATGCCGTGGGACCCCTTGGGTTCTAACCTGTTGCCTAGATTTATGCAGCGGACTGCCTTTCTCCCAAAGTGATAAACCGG…AGGTTGGTTTCACT; site = the 11-nt donor;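 further: IS621 bridge recombinase in Escherichia coli cells against a fixed T5 target plasmid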
recombinant UMI read abundance (log10) of 0.01 or higher: label 1. Under 0.01: label 0.

Please review the entries below; each comes with its answer.
ACTAGAACATGGACCGGTTTTCCCGGTAATCCGTATTTGAT (site ACTAGAACTTT) :: label 1
CGGGAGTCATGGACCGGTTTTCCCGGTAATCCGTATTTGCC (site CGTGAGTCTGG) :: label 1
GAGATCACATGGACCGGTTTTCCCGGTAATCCGTATTTGAT (site GAGCTCACTAT) :: label 0
AATATAACATGGACCGGTTTTCCCGGTAATCCGTATTTGCT (site AATATAACTAG) :: label 1

In the following, a different sequence is considered.
Confirm if recombinant UMI read abundance (log10) reported for the sequence CGTTAGACATGGACCGGTTTTCCCGGTAATCCGTATTTGAG (site CGTTATACTCT) is 0.01 or above.
label 1

Source: the supplement of paper PMC11208160
